Entries annotated with measured hERG current change (%, negative = inhibition) at 10uM
# system-under-test: human ether-à-go-go-related gene (hERG) potassium channel (human, UniProt Q12809);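 further: peak tail current of the secondary pulse compared with the same well before compound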
# Sequence (Q12809 whole entry, looked up): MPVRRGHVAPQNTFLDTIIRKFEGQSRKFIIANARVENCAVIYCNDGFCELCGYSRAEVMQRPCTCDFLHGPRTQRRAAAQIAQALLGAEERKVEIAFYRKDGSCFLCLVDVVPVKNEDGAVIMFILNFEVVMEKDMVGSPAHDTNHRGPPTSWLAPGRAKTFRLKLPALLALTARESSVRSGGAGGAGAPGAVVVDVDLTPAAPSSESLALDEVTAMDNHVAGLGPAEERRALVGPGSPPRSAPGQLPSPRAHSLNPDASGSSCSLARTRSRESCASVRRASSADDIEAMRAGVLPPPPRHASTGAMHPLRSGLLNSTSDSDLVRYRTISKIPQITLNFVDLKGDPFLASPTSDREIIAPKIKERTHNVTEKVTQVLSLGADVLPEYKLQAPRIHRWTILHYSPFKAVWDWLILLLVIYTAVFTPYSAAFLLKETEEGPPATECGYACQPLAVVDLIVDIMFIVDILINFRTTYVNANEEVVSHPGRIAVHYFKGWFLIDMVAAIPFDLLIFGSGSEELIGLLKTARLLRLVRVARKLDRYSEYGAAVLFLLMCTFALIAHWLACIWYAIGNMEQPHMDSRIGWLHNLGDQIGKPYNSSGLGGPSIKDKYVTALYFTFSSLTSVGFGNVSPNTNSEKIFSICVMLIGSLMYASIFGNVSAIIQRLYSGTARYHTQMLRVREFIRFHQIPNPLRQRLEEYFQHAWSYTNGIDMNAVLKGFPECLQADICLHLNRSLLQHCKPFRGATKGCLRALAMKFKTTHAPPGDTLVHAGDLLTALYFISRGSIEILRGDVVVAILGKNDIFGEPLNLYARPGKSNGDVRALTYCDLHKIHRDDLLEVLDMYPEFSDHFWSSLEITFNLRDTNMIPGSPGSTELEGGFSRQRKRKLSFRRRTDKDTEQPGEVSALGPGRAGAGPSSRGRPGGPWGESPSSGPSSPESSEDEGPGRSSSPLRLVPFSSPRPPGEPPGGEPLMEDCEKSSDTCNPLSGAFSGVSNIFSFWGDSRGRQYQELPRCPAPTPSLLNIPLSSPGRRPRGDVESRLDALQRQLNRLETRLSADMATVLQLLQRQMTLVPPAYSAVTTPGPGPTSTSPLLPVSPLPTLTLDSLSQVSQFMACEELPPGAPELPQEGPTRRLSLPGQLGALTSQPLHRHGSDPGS
# protocol-description: primary screen, population patch clamp on CHO cells stably expressing hERG; higher = less effect of the substance
The whole screen tested about 310,000 compounds, of which about 14,000 (4.5%) showed an effect of 50% or more. Effects have a minus sign here. For the sample, strong results were picked, then their nearest neighbours and some compounds at random.
outcome-measure: hERG current change (%, negative = inhibition) at 10uM (%)

{"molecule": "Cc1ccnc(N2CCC(C(=O)NNC(=O)COc3cccc4ccccc34)CC2)n1", "result-number": 11.2}
{"molecule": "CCCCOP(=O)(OCCCC)/C(C#N)=C(/C)O", "result-number": 13.1}
{"molecule": "Cc1ccc(CN2C3=NCCCN3c3ccccc32)cc1.Cl", "result-number": -61.2}
{"molecule": "Cc1nc(N(C)Cc2ccccc2)c2nnn(Cc3ccccc3)c2n1", "result-number": -37.9}
{"molecule": "OCC1(Cc2cccc(Cl)c2)CCCN(Cc2cnn(-c3ccccc3)c2)C1 (stereo not shown)", "result-number": -54.7}
{"molecule": "COc1ccc(S(=O)(=O)N2CCCOC2CNC(=O)C(=O)NCCCn2ccnc2)cc1 (stereo not shown)", "result-number": -3.17}
{"molecule": "COc1ccc(N2CCCC2)c(NC(=O)COc2ccccc2Cl)c1", "result-number": 14.8}
{"molecule": "CNC(=O)/C(C#N)=C/c1c(N2CC(C)OC(C)C2)nc2ccccn2c1=O (stereo not shown)", "result-number": 1.43}
{"molecule": "Cl.Nc1ncnc2nc[nH]c12", "result-number": 4.95}
{"molecule": "COc1ccccc1-n1cc(CN2CCCC(CO)(Cc3cccc(Cl)c3)C2)cn1 (stereo not shown)", "result-number": -49.5}

###

# system-under-test: human ether-à-go-go-related gene (hERG) potassium channel (human);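 further: peak tail current of the secondary pulse compared with the same well before compound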
# protocol-description: primary screen, population patch clamp on CHO cells stably expressing hERG; higher = less effect of the substance
The campaign covered roughly 310,000 compounds. About 14,000 (4.5%) showed an effect of 50% or more. The effect is printed as a negative number. What follows is part of a selection rich in strong results, with near analogues and random picks from the rest.
outcome-measure: hERG current change (%, negative = inhibition) at 10uM (%)

{"compound": "CCN1C(=O)[C@H]2[C@@H](c3ccc(SC4CCCCC4)c(OC)c3)N3CCCC[C@@]3(C(=O)OC)[C@H]2C1=O.O=C(O)C(F)(F)F", "result-unit": "%", "result-number": 13}
{"compound": "Cc1c(C(O)CN2CCC(C(N)=O)CC2)c2ccccc2n1C (stereo not drawn)", "result-unit": "%", "result-number": -3.73}
{"compound": "CCOc1ccc(-n2c(C)nc3cc(C(=O)NCC4CCCO4)ccc32)cc1 (stereo not drawn)", "result-unit": "%", "result-number": -15.2}
{"compound": "Cc1onc(-c2ccccc2)c1-c1nnc(CN2CCN(S(=O)(=O)c3ccccc3F)CC2)o1", "result-unit": "%", "result-number": -28.4}
{"compound": "COc1cccc(Nc2ncnc3onc(-c4ccccc4OC)c23)c1", "result-unit": "%", "result-number": -4.9}
{"compound": "CCOC(=O)c1c(NC(=O)C[n+]2ccc(Cc3ccccc3)cc2)sc(C)c1C.[Cl-]", "result-unit": "%", "result-number": -43.5}
{"compound": "CC(=O)Cn1c(N2CCC(Cc3ccccc3)CC2)nc2c1c(=O)[nH]c(=O)n2C", "result-unit": "%", "result-number": 10.3}
{"compound": "O=C(CNC(=O)c1ccccc1)NCC(O)c1ccc([N+](=O)[O-])cc1 (stereo not drawn)", "result-unit": "%", "result-number": 10.7}
{"compound": "COc1ccc2c(c1)c(C(O)CN1CCC(Cc3ccccc3)CC1)c(C)n2C (stereo not drawn)", "result-unit": "%", "result-number": -71}
{"compound": "CN(C)S(=O)(=O)c1ccc(N2CCOCC2)c(C(=O)NCc2ccc3c(c2)OCO3)c1", "result-unit": "%", "result-number": -14.7}
{"compound": "O=C1CCN(Cc2ccc([N+](=O)[O-])cc2)CCN1[C@H](CO)c1ccccc1", "result-unit": "%", "result-number": -37.4}
{"compound": "O=C1CSC(c2ccccc2)N1CC(O)c1ccc([N+](=O)[O-])cc1 (stereo not drawn)", "result-unit": "%", "result-number": -12.1}
{"compound": "Cc1ccc(NC(=O)Cc2noc3ccccc23)c(C)c1", "result-unit": "%", "result-number": 11.2}
{"compound": "Cc1cc(OCc2cccc(Cl)c2)c(C)cc1CN1CCOCC1", "result-unit": "%", "result-number": 0.275}
{"compound": "CC(C)CNC(=O)[C@H](Cc1ccccc1)NC(=O)c1ccco1", "result-unit": "%", "result-number": -6.82}
{"compound": "O=C(NNC(=O)C12CC3CC(CC(C3)C1)C2)c1csc(N2CCOCC2)n1", "result-unit": "%", "result-number": 11.3}
{"compound": "O=C(c1ccc([N+](=O)[O-])cc1)N1CCN(Cc2ccccc2)CC1", "result-unit": "%", "result-number": -66.4}
{"compound": "C#CCOc1ccc(/C=C2\\SC(=S)N(Cc3cccnc3)C2=O)cc1", "result-unit": "%", "result-number": 15.9}
{"compound": "OC(COc1ccc(F)cc1Cl)CN1CCC(Cc2ccccc2)CC1 (stereo not drawn)", "result-unit": "%", "result-number": -84.6}
{"compound": "O=[N+]([O-])c1ccc(C(O)CN2CCN(c3ccccc3)CC2)cc1 (stereo not drawn)", "result-unit": "%", "result-number": -50.3}
{"compound": "O=C1CC(c2ccc(F)cc2)Cc2nc(N3CCN(c4ccccc4)CC3)ncc21 (stereo not drawn)", "result-unit": "%", "result-number": 1.48}
{"compound": "O=C(Nc1ccc(C(=O)N2CCCCC2)cc1)c1ccc([N+](=O)[O-])cc1", "result-unit": "%", "result-number": -1.34}
{"compound": "O=C(c1ccc([N+](=O)[O-])cc1)N1CCN(c2ncccn2)CC1", "result-unit": "%", "result-number": -77.8}
{"compound": "CN1CCc2c1nc1ccccc1c2N.O=C(O)c1cc([N+](=O)[O-])ccc1Cl", "result-unit": "%", "result-number": -9.41}
{"compound": "COCCNC(=O)c1ccccc1-c1nc(-c2ccccc2Cl)no1", "result-unit": "%", "result-number": -9.09}
{"compound": "O=[N+]([O-])c1ccc(C(O)CNC(=S)Nc2ccccc2)cc1 (stereo not drawn)", "result-unit": "%", "result-number": -11.6}
{"compound": "Cc1ccc2c(c1)sc1nc(=O)n(-c3ccc(Cl)cc3)c(=O)n12", "result-unit": "%", "result-number": 6.6}
{"compound": "O=c1[nH]cccc1-c1nc2ccccc2n1Cc1ccc(F)cc1", "result-unit": "%", "result-number": -22.5}
{"compound": "O=C(c1c(Cl)cccc1Cl)N1CCN(c2cccc3[nH]ccc23)CC1", "result-unit": "%", "result-number": 22.3}
{"compound": "COc1ccc2c(c1)c(C(=O)CN1CCN(Cc3ccccc3)CC1)c(C)n2C", "result-unit": "%", "result-number": -29.8}
{"compound": "CCCCc1nc2ccccc2c(N)c1CCC.O=C(O)c1cc([N+](=O)[O-])ccc1Cl", "result-unit": "%", "result-number": -66.4}
{"compound": "O=[N+]([O-])c1ccc(C(O)C[n+]2ccccc2)cc1.[I-] (stereo not drawn)", "result-unit": "%", "result-number": 12}
{"compound": "COC(=O)c1ccccc1Oc1nc(Cl)cc(OC)n1", "result-unit": "%", "result-number": -12.1}
{"compound": "COc1cccc(-n2ccnc2SCC(=O)Nc2cc(C)on2)c1", "result-unit": "%", "result-number": 14.1}
{"compound": "Fc1ccccc1CN1CCC(Cc2ccccc2)CC1", "result-unit": "%", "result-number": -24.4}
{"compound": "CCCCc1nc2ccccc2c(C(=O)O)c1C", "result-unit": "%", "result-number": 7.29}
{"compound": "NS(=O)(=O)c1ccc(NC(=O)c2cc(-c3cc(Cl)ccc3O)n[nH]2)cc1", "result-unit": "%", "result-number": 15.7}
{"compound": "O=[N+]([O-])c1ccc(C(O)CN2CCOCC2)cc1 (stereo not drawn)", "result-unit": "%", "result-number": 18.5}
{"compound": "CC1CCCCC1NC(=O)CCCn1c(=S)[nH]c2ccsc2c1=O (stereo not drawn)", "result-unit": "%", "result-number": 12.9}

###

Entries annotated with measured hERG current change (%, negative = inhibition) at 10uM
# system-under-test: human ether-à-go-go-related gene (hERG) potassium channel (human);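 further: peak tail current of the secondary pulse compared with the same well before compound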
# protocol-description: primary screen, population patch clamp on CHO cells stably expressing hERG; higher = less effect of the substance
The campaign covered roughly 310,000 compounds. About 14,000 (4.5%) showed an effect of 50% or more. The effect is printed as a negative number. The sample as a whole holds a higher share of strong results than the screen did.
outcome-measure: hERG current change (%, negative = inhibition) at 10uM

{"compound": "CC(C)(C)c1ccc(-c2c(C#N)c(N)nc3c2CCCC3)s1", "result": "-0.863%"}
{"compound": "CN(C)CCOC(=O)c1cn(Cc2ccccc2)c2ccccc12.Cl", "result": "-59.1%"}
{"compound": "C=C(C)Cn1c(-c2ccccc2)nc2ccccc21", "result": "-64.9%"}
{"compound": "CN(C)S(=O)(=O)c1cccc(NC(=O)COC(=O)c2cn(-c3ccccc3)nc2-c2ccccc2)c1", "result": "12.3%"}
{"compound": "CCCCCn1cc(C(=O)C(=O)N2CCOCC2)c2ccccc21", "result": "-26.3%"}
{"compound": "CCCCCCn1cc(C(=O)O)c(=O)c2ccccc21", "result": "-75.8%"}
{"compound": "CC1CCCN(C(=O)Cc2cn(Cc3cccc(Cl)c3)c3ccccc23)C1 (stereo not shown)", "result": "-5.42%"}
{"compound": "O=C(O)c1cn(Cc2ccccc2)c2ccc(Cl)cc2c1=O", "result": "-76.3%"}
{"compound": "CN(C)c1ccc(-c2nc3ccccc3n2C)cc1", "result": "-49.9%"}
{"compound": "O=S(=O)(N1CCOCC1)N1CCCN(S(=O)(=O)N2CCOCC2)CC1", "result": "5.76%"}
